Recorded values, source patent US7846943B2.

EXPERIMENTAL_SYSTEM: endothelial lipase (EL) (Homo sapiens)
Construct: concentrated conditioned medium used as enzyme solution
Sequence (Q9Y5X9 21-500, species assumed): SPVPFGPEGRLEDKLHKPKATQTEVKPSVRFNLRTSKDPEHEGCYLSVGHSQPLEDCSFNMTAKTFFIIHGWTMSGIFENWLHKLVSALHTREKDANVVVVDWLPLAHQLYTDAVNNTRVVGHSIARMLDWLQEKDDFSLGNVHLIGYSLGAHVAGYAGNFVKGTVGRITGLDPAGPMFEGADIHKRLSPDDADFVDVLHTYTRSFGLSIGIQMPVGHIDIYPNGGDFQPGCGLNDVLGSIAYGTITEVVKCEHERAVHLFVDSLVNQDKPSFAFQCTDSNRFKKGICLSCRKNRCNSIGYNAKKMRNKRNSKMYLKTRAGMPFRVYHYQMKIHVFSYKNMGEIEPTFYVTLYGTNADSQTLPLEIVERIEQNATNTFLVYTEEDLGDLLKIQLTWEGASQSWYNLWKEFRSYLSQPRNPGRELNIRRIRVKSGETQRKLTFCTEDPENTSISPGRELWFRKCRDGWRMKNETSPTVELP
RUN_DESCRIPTION: Further EL inhibition assay
MEASUREMENT_CONDITIONS: Bodipy-labelled phospholipid substrate, 37° C., 90 minutes, HPTLC fluorescence readout; EL from conditioned medium of recombinant cell lines (CHO, HEK293)
Please note: IC50 exactly at 200 nM is Not met. Only values below 200 nM get Met.

INSERT INTO assay_data (compound, label_class) VALUES
  ('Cc1ccccc1CNC(=O)n1c(=O)oc2cccnc21 [Example 1]', 'Met'),
  ('O=C(N[C@H]1CCc2ccccc21)n1c(=O)oc2cccnc21 [Example 15]', 'Not met'),
  ('Cc1cccc(CNC(=O)n2c(=O)oc3cccnc32)c1 [Example 4]', 'Not met'),
  ('O=C(NC1CCCc2ccccc21)n1c(=O)oc2cccnc21 (centres unmarked) [Example 13]', 'Met'),
  ('O=C(N[C@@H]1CCc2ccccc21)n1c(=O)oc2cccnc21 [Example 14]', 'Met'),
  ('Cc1ccc2oc(=O)n(C(=O)NCc3ccccc3C)c2n1 [Example 17]', 'Met');

Prompt: Dear colleague, could you confirm whether IC50 of Cc1ccc(CNC(=O)n2c(=O)oc3cccnc32)cc1C [Example 5] falls below 200 nM? Thanks.
Response: Met

Prompt: // repeat for Cc1ccccc1CNC(=O)n1c(=O)oc2cc(Br)cnc21 [Example 2] and report
Response: Met
